- testSystem: T1, extracellular domain (ECD) of human IGSF11 (VSIG3), recombinant (human, UniProt Q5DX21 23-241)
- T1 construct: biotinylated where captured on streptavidin; tags of the reagent not always stated; also called IGSF11 (ECD domain); ECD-IGSF11
- T1 sequence: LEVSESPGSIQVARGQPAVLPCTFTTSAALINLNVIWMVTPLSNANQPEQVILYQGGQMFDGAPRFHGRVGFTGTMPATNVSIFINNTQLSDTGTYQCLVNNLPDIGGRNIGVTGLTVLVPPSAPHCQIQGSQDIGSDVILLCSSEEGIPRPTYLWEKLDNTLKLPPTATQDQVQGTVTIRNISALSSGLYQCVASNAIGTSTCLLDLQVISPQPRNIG
- protocolDescription: SPR
endpointLabel: Kd

What measured Kd goes with A-034 (IgG1 format) (antibody, V domains shown, human IgG1 format) VH: QMQLVQSGGGLVKPGGSLRLSCAASGFTFSSYTMNWVRQAPGKGLEWVSSISSIGTYIYYADSVKGRFTISRDNAKNSLYLQMNSLRAEDTAVYYCARVLLSGSYYGYFDSWGQGTLVTVSS VL: QSVLTQPPSVSGAPGQRVTISCTGSSSNIGAGYDVHWYQQLPGTAPKLFIYGNSNRPSGVPDRFSGSKSGTSASLAITGLQAEDEADYYCQSYDSSLSGYVFGTGTKVTVL ?
250 to 500 nM

What measured Kd goes with A-004 (IgG1 format) (antibody, V domains shown, human IgG1 format) VH: EVQLVESGGGLVKPGGSLRLSCAASGFTFSSYSMNWVRQAPGKGLEWVSSISSSSSYIYYADSVKGRFTISRDNAKNSLYLQMNSLRAEDTAVYYCARGQLLWFGESALIDAFDIWGQGTMVTVSS VL: EIVLTQSPSSLSASVGDRVTITCRASQSISSYLNWYQLKPGKAPKLLIYAASILQSGVPSRFSGSGSGTDFTLTISSLQPEDFAAYYCQQSYSTPRTFGQGTKLEIK ?
100 to 250 nM

What measured Kd goes with A-006 (IgG1 format) (antibody, V domains shown, human IgG1 format; also called A-006-like ABP) VH: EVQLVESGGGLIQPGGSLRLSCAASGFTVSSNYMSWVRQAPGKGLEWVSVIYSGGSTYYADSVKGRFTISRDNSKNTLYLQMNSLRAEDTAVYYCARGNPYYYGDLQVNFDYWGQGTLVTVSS VL: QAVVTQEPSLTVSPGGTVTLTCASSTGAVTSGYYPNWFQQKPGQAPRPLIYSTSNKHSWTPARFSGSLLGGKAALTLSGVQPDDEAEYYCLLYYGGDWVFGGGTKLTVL ?
250 to 500 nM

What measured Kd goes with A-026 (IgG1 format) (antibody, V domains shown, human IgG1 format) VH: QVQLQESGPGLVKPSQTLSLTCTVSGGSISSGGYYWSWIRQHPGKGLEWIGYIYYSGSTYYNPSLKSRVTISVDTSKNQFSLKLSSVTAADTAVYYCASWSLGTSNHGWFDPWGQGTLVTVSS VL: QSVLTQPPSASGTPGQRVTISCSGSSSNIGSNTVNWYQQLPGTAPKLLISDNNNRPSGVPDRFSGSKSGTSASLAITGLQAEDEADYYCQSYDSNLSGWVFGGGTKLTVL ?
> 500 nM

What measured Kd goes with A-013 (IgG1 format) (antibody, V domains shown, human IgG1 format) VH: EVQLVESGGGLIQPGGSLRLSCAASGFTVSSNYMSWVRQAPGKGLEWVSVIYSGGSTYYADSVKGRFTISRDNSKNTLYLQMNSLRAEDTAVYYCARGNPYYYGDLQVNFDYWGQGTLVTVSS VL: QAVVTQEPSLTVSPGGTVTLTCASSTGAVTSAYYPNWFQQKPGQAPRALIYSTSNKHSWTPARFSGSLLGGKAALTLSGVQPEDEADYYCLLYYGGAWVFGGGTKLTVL ?
100 to 250 nM

What measured Kd goes with A-011 (IgG1 format) (antibody, V domains shown, human IgG1 format) VH: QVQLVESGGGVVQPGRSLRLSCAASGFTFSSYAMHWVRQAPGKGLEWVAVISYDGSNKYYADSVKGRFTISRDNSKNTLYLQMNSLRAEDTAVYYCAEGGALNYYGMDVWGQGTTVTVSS VL: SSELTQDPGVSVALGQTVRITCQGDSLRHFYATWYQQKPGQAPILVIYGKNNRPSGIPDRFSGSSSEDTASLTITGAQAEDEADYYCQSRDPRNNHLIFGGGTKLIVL ?
250 to 500 nM
